Every entry's value here was drawn from patent US20220184003A1.

Experiment: Solubility of VCE-004.8 and its phytosomes in buffer medium at various pH
Assay type: physicochemical
Conditions: 37 °C, pH 4.5, aqueous buffer, thermodynamic from solid
VALUE_TYPE: solubility thermodynamic at 2 h

1. C=C(C)C1CCC(C)=C[C@H]1C1=C(O)C(=O)C(CCCCC)=C(NCc2ccccc2)C1=O (stereo partly shown) : 5 ng/mL

====

Assay: physchem
Type: physicochemical
Conditions: 25 °C, pH 5, aqueous buffer, thermodynamic from solid, Solubility
VALUE_TYPE: solubility at 24 h

1) C=C(C)C1CCC(C)=C[C@H]1C1=C(O)C(=O)C(CCCCC)=C(NCc2ccccc2)C1=O (stereo partly shown) : < 8 µg/mL
